B1: HDV Ribozyme (parent)
chain: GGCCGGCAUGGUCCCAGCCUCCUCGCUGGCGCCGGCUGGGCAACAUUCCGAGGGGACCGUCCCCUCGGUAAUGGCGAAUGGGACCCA

variants of: B1; assay: self-cleavage, relative activity (ratio to wild type); higher = more cleavage; co-transcriptional
MEASUREMENT NAME: self-cleavage
Give bare numbers.

mut="C36U U72C" measurement_name=self-cleavage quantitative_readout=0.102
mut="C22U C49G" measurement_name=self-cleavage quantitative_readout=0.684

Here is another variant to look at.
Report self-cleavage for G55U G74U please.
0.707
